Target: T1, extracellular domain of activin receptor type IIB (ActRIIBecd), biotinylated (Homo sapiens (Human), UniProt Q13705 27-117, amino-biotinylated with amine-PEG3-Biotin)
T1 construct: immobilised on a streptavidin-coated sensor chip; also called biotinylated ActRIIBecd; extracellular domain of ActRIIB
T1 sequence: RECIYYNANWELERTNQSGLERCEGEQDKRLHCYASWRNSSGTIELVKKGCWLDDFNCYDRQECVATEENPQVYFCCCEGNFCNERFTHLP
Assay: BIAcore SPR, biotinylated ActRIIBecd on chip; SD ±17.42 nM
recorded-endpoint: pKd
Interpret pKd as the negative base-10 log of the concentration measured in mol/L.

Entry NSKIPKACCVPTELSAISMLYLDENEKPVLKNYQDMVVEGCGCR [Clone No. 23 domain (ActRIIBecd-associated polypeptide)] needs its pKd filled in; supply it.
7.19
